# test_summary: Solubility of BBR in supersaturated aqueous solutions
# Type: physicochemical
# reported_conditions: water, thermodynamic from solid
Structures can show the parent of a compound that is named as a salt.
measured_metric: solubility at 1 h

Could you tell me which solubility at 1 h is on file for COc1ccc2cc3[n+](cc2c1OC)CCc1cc2c(cc1-3)OCO2 [BBR, berberine hydrochloride] ?
~3700 µg/mL

----------
# test_summary: Transportation of BBR across MDCK-MDR1 cell monolayer
# Assay type: in vitro ADME, canine
# reported_conditions: dog
Where a name gives a salt, the structure may show the parent alone.
measured_metric: Papp at 10 μg/mL

Could you share which Papp at 10 μg/mL value was measured for COc1ccc2cc3[n+](cc2c1OC)CCc1cc2c(cc1-3)OCO2 [BBR, berberine hydrochloride] ?
< 1 ×10⁻⁶ cm/s
